// Papp A→B lookup, one value per entry
- System: MDR1 (P-gp), human
- assayDetails: Apparent permeability across apical to basolateral side in MDCK cells transfected with human MDR1 gene
- Format: ADME, cell-based, Canis lupus familiaris
- measurementParameters: dog

chemSmiles	Papp A→B
CCN(CC)C(=O)c1ccc([C@H](c2cccc(NC(=O)C3CC3)c2)N2CCN(CCOC)CC2)cc1	< 0.1 ×10⁻⁶ cm/s
CCOC(=O)Nc1ccccc1[C@@H](c1ccc(C(=O)N(CC)CC)cc1)N1CCN(Cc2ccccn2)CC1	0.43 ×10⁻⁶ cm/s
CCOC(=O)Nc1cccc([C@@H](c2ccc(C(=O)N(C)CC)cc2)N2CCN(Cc3c[nH]c(C)n3)CC2)c1	< 0.1 ×10⁻⁶ cm/s
CCOC(=O)Nc1ccccc1[C@@H](c1ccc(C(=O)N(CC)CC)cc1)N1CCN(Cc2cscn2)CC1	< 0.1 ×10⁻⁶ cm/s
CCN(C)C(=O)c1ccc([C@H](c2ccccn2)N2CCN(Cc3ccccn3)CC2)cc1	0.25 ×10⁻⁶ cm/s
CN(CCO)C(=O)c1ccc([C@H](c2cccc(NC(=O)C3CC3)c2)N2CCN(Cc3ccc(F)cc3)CC2)cc1	< 0.1 ×10⁻⁶ cm/s
CCOC(=O)Nc1cccc([C@@H](c2ccc(C(=O)N3CCC3)cc2)N2CCN(Cc3cccnc3)CC2)c1	0.18 ×10⁻⁶ cm/s
CCN(CC)C(=O)c1ccc([C@H](c2cccc(NC(=O)C3CC3)c2)N2CCN(Cc3ccc(F)cc3)CC2)cc1	< 0.1 ×10⁻⁶ cm/s
CCOC(=O)Nc1cccc([C@@H](c2ccc(C(=O)N(CC)CC)cc2)N2CCN(Cc3cscn3)CC2)c1	< 0.1 ×10⁻⁶ cm/s
CCN(CC)C(=O)c1ccc([C@H](c2cccc(NC(=O)OC)c2)N2CCN(Cc3cncs3)CC2)cc1	0.22 ×10⁻⁶ cm/s
CCOC(=O)Nc1cccc([C@@H](c2ccc(C(=O)N(C)CC)cc2)N2CCN(Cc3nc[nH]c3C)CC2)c1	< 0.1 ×10⁻⁶ cm/s
CCN(C)C(=O)c1ccc([C@H](c2cccnc2)N2CCN(Cc3cscn3)CC2)cc1	< 0.1 ×10⁻⁶ cm/s
CCN(CC)C(=O)c1ccc([C@H](c2cccc(NC(=O)OC)c2)N2CCN(Cc3cccnc3)CC2)cc1	0.3 ×10⁻⁶ cm/s
CCN(C)C(=O)c1ccc([C@H](c2cccc(NC(=O)OC)c2)N2CCN(Cc3cscn3)CC2)cc1	0.12 ×10⁻⁶ cm/s
O=C(Nc1cccc([C@@H](c2ccc(C(=O)N3CCC3)cc2)N2CCN(Cc3ccc(F)cc3)CC2)c1)C1CC1	< 0.1 ×10⁻⁶ cm/s
CCN(C)C(=O)c1ccc([C@H](c2cccc(NC(=O)C3CCC3)c2)N2CCN(Cc3cccnc3)CC2)cc1	< 0.1 ×10⁻⁶ cm/s
CCOC(=O)Nc1ccc([C@@H](c2ccc(C(=O)N(CC)CC)cc2)N2CCN(Cc3cscn3)CC2)cc1	0.13 ×10⁻⁶ cm/s
CCN(C)C(=O)c1ccc([C@H](c2cccnc2)N2CCN(Cc3ccccn3)CC2)cc1	0.12 ×10⁻⁶ cm/s

----------
Parameter IC50, tested on Voltage-gated inwardly rectifying potassium channel KCNH2 (Homo sapiens, UniProt Q12809), listed per item.
Sequence (Q12809 whole entry): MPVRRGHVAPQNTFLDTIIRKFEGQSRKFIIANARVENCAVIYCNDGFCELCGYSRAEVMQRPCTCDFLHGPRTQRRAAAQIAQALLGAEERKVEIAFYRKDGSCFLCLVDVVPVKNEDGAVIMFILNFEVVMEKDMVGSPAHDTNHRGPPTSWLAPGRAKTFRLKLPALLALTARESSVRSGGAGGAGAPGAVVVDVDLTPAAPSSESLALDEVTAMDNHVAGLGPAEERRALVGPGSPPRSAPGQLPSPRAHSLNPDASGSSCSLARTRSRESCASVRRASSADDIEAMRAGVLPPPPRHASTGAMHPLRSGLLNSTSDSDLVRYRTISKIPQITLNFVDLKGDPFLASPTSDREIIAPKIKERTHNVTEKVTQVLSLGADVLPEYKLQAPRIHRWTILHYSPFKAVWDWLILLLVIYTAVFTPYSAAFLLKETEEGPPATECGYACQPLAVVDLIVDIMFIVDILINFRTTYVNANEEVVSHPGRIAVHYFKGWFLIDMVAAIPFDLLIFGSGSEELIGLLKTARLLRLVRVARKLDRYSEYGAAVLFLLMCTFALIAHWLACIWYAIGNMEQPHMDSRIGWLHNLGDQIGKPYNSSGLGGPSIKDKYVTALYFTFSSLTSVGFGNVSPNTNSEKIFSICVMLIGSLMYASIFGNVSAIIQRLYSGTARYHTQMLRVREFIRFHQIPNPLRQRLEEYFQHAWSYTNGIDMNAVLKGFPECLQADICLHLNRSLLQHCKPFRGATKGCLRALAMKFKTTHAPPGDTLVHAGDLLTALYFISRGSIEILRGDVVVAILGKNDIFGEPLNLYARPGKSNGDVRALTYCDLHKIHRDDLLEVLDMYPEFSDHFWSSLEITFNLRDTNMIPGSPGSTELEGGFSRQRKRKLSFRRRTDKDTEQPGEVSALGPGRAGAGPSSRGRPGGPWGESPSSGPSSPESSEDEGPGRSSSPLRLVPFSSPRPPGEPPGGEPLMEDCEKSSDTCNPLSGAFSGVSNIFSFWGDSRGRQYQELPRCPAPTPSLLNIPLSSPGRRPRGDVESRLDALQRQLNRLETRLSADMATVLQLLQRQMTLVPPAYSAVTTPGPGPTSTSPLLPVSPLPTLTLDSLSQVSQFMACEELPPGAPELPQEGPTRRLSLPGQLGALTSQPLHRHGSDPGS

chemSmiles	unitSymbol	IC50
CCN(C)C(=O)c1ccc([C@H](c2cccc(NC(=O)C3CC3)c2)N2CCN(CCCOC)CC2)cc1	µM	13
CCN(CC)C(=O)c1ccc([C@H](c2cccc(NC(=O)C3CC3)c2)N2CCN(Cc3ccc(F)cc3)CC2)cc1	µM	11
CCOC(=O)Nc1ccc([C@@H](c2ccc(C(=O)N(CC)CC)cc2)N2CCN(Cc3cscn3)CC2)cc1	µM	7.3
CCN(C)C(=O)c1ccc([C@H](c2cccnc2)N2CCN(Cc3ccccn3)CC2)cc1	µM	13
CCOC(=O)Nc1cccc([C@@H](c2ccc(C(=O)N3CCC3)cc2)N2CCN(Cc3cccnc3)CC2)c1	µM	11
CCOC(=O)Nc1ccccc1[C@@H](c1ccc(C(=O)N(CC)CC)cc1)N1CCN(Cc2ccccn2)CC1	µM	9.9
